Biological target: Muscarinic acetylcholine receptor M2 (Homo sapiens, UniProt P08172)
Sequence (P08172 whole entry): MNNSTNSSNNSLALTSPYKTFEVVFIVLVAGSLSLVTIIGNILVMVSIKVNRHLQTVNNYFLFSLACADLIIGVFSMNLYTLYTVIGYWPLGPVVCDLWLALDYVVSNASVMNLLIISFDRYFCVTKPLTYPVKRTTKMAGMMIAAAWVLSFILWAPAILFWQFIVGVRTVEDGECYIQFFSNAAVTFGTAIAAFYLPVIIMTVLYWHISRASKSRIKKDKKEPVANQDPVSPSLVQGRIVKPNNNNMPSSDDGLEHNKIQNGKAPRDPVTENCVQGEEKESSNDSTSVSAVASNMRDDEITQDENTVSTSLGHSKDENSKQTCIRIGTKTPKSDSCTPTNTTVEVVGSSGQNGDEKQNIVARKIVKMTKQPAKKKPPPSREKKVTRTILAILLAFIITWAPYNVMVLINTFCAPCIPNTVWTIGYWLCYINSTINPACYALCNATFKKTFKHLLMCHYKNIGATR
pEC50: −log10 of the molar value.
The following ranges of pEC50 define the classes used here: low (below 6), middle (6 to below 7), high (7 or more)

Past entries and their recorded results:
INSERT INTO assay_data (compound, answer_label) VALUES
  ('COc1cccc(C#CCO/N=C2\CN3CCC2C3)c1 (centres undefined)', 'low'),
  ('C(#Cc1ccccc1)COc1nsnc1[C@@H]1CN2CCC[C@@H]1C2', 'high'),
  ('C(#Cc1ccccc1)CSc1nsnc1[C@H]1CN2CCC[C@H]1C2', 'high'),
  ('C(#Cc1ccccc1)COc1nsnc1[C@H]1CN2CCC1C2 (some centres undefined)', 'high'),
  ('C(#Cc1ccccc1)COc1nsnc1[C@H]1CN2CCC[C@@H]1C2', 'low');

Exam item: assign C(#Cc1ccccc1)COc1nsnc1[C@H]1CN2CCC[C@H]1C2 to the correct category.
high

Kindly state the category for this compound: C(#Cc1ccccc1)CSc1nsnc1[C@@H]1CN2CCC[C@H]1C2
low

Tag the class for CN1CCC=C(c2nsnc2OCC#Cc2ccccc2)C1
middle

Into which category would you place C(#Cc1ccccc1)COc1nsnc1[C@@H]1CN2CCC[C@H]1C2 ?
middle
